src = PubChem BioAssay AID1159580

Experiment: chemical genetic growth profiling, strain panel (AID 1159580);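 further: tested at 20 µM; growth read once vehicle control cultures reached saturation at 30 °C; 1 = growth at the plate median or of vehicle wells; lower values mean less growth of the strain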
Details: S. cerevisiae deletion strains, growth OD, locus YBR160W, strain CDC28, hits give low values
The campaign covered roughly 5,500 compounds. About 2,000 (36%) were called active. Another 18% or so got no clear call; they are omitted. The list shows a part of the results.
endpoint label: normalized growth
Give bare numbers.

The examples below pair each entry with its known result.
{"structure smiles": "O=C(Nc1ccc(OC(F)(F)F)cc1)N1CCN(c2nc(-c3ccccc3)ns2)CC1", "normalized growth": 0.991}
{"structure smiles": "COC(=O)c1sccc1-c1ccc(/C=C/[N+](=O)[O-])o1", "normalized growth": 0.952}
{"structure smiles": "CCc1ccn2cc(Nc3ccccc3Cl)nc2c1", "normalized growth": 0.971}

Sample `Cc1onc(-c2c(Cl)cccc2Cl)c1C(=O)NC(C)(C)CC(C)(C)C` — what was its normalized growth?
0.997

====

Experiment: chemical genetic growth profiling, strain panel (AID 1159580)
Settings: S. cerevisiae deletion strains, growth OD, locus YJL095W, strain BCK1 (second series), hits give low values
About 2,000 (36%) of roughly 5,500 compounds were called active. Inconclusive results (about 18%) are left out. The list shows a part of the results.
endpoint label: normalized growth
Numbers only.

{"molecule": "O=C1C=C2C=C[C@@H]3C[C@@]2(O1)[C@H]1CCCCN31", "recorded number": 1}
{"molecule": "CCOC(=O)Nc1nc2ccccc2[nH]1", "recorded number": 0.975}
{"molecule": "NC(CO)C(=O)NNCc1ccc(O)c(O)c1O (centres undefined)", "recorded number": 1}
{"molecule": "CCNC(=O)CC[C@H](N)C(=O)O", "recorded number": 0.99}
{"molecule": "O=C(C1CCCCC1)N1CC(=O)N2CCc3ccccc3C2C1 (centres undefined)", "recorded number": 1.01}
{"molecule": "N[C@@H](CC(=O)N1CCn2c(nnc2C(F)(F)F)C1)Cc1cc(F)c(F)cc1F", "recorded number": 0.993}
{"molecule": "Cc1ccc(C)c(OCCCC(C)(C)C(=O)O)c1", "recorded number": 0.983}
{"molecule": "CC(C)NC[C@H](O)COc1cccc2ccccc12", "recorded number": 0.987}
{"molecule": "CCN(CC)CCOC(=O)c1ccc(N)cc1", "recorded number": 0.993}
{"molecule": "C#CCCCCCCCCCCCC(O)CC(O)CO (centres undefined)", "recorded number": 0.985}

Each of the following entries comes with a recorded value; kindly state normalized growth for each.
1. CO/N=C(\C(=O)NC1C(=O)N2C(C(=O)O)=C(COC(N)=O)CSC12)c1ccco1 (centres undefined)
2. C=C1CCC2C(CC2(C)C)C(=C)CC/C1=N\O (centres undefined)

1: 0.98; 2: 1

Each of the following entries comes with a recorded value; kindly state normalized growth for each.
1. C=CC(N)CCC(=O)O (centres undefined)
2. CC(C)C(C)/C=C/C(C)[C@H]1CCC2C3=CCC4CC(=O)CC[C@]4(C)C3CC[C@@]21C (some centres undefined)
3. COc1ccc(-c2coc3cc(OC)cc(OC)c3c2=O)cc1
4. COc1cc2occ(-c3ccccc3)c(=O)c2c(OC)c1C
5. COc1cc2c(cc1OC)C1Cc3ccc(OC)c(OC)c3CN1CC2 (centres undefined)
6. CC1=CC2C(CC1=O)C(C)=CCC2C(C)C (centres undefined)
7. CC(C)C(C)/C=C/C(C)C1CCC2C3=CC=C4CC(O)CCC4(C)C3CCC21C (centres undefined)

1: 0.987; 2: 1.01; 3: 1.01; 4: 0.975; 5: 0.975; 6: 1.01; 7: 0.898

Each of the following entries comes with a recorded value; kindly state normalized growth for each.
1. CO[C@@]1(NC(=O)CSCC#N)C(=O)N2C(C(=O)O)=C(CSc3nnnn3C)CSC21 (some centres undefined)
2. CO/N=C(\C(=O)NC1C(=O)N2C(C(=O)OC(C)OC(C)=O)=C(COC(N)=O)CSC12)c1ccco1 (centres undefined)
3. CC(=O)OC1CCC2(C)C(=CC=C3C2CCC2(C)C3CCC2C(C)/C=C/C(C)C(C)C)C1(C)C (centres undefined)
4. CCCCCCCCCCCCCCCC(=O)OC1C(SC)OC(C(NC(=O)C2CC(CCC)CN2C)C(C)Cl)C(O)C1O (centres undefined)
5. CCCCOC(=O)c1ccccc1C(=O)OCCCC
6. CO/N=C(\C(=O)N[C@@H]1C(=O)N2C(C(=O)O)=C(CSc3nc(=O)c(O)nn3C)CS[C@H]12)c1csc(N)n1
7. Nc1ccn(C2O[C@H](CO)[C@@H](O)[C@@H]2O)c(=O)n1 (some centres undefined)
8. O=C(O)CN(CC(=O)O)Cc1cc2c(-c3ccccc3C(=O)O)c3cc(CN(CC(=O)O)CC(=O)O)c(=O)cc-3oc2cc1O

[0.979, 0.997, 1.02, 0.99, 0.985, 0.966, 1, 0.961]

====

Test: chemical genetic growth profiling, strain panel (AID 1159580)
Settings: S. cerevisiae deletion strains, growth OD, locus YOR316C, strain cot1, hits give low values
Among all 5,500 compounds or so, about 2,000 (36%) were called active. Roughly 18% stayed inconclusive and do not appear here. The list shows a part of the results.
endpoint label: normalized growth
Give bare numbers.

Each of the following entries comes with a recorded value; kindly state normalized growth for each.
1. CCN(CC)C(=O)c1cccc(C)c1
2. CC(=O)OCC(COC(C)=O)OC(C)=O
3. CO/N=C(\C(=O)N[C@@H]1C(=O)N2C(C(=O)O)=C(COC(C)=O)CS[C@H]12)c1csc(N)n1
4. C=CCCCCCCCCCCCC(O)CC(O)COC(C)=O (configuration not stated) (tested in a mixture with another compound)
5. NC(CO)C(=O)NNCc1ccc(O)c(O)c1O (configuration not stated)

0.995
1.01
0.984
0.984
0.991

Each of the following entries comes with a recorded value; kindly state normalized growth for each.
1. CO/N=C(\C(=O)NC1C(=O)N2C(C(=O)O)=C(COC(N)=O)CSC12)c1ccco1 (configuration not stated)
2. CC(C)C(=O)Nc1ccc([N+](=O)[O-])c(C(F)(F)F)c1
3. C#CCCCCCCCCCCCC(=O)CC(O)COC(C)=O (configuration not stated)
4. CC(C)NNC(=O)c1ccncc1
5. O=C(Cn1ccnc1[N+](=O)[O-])NCCO

[0.0579, 0.977, 0.962, 1.02, 1]

====

Assign normalized growth to each entry below.
Assay: chemical genetic growth profiling, strain panel (AID 1159580)
Conditions: S. cerevisiae deletion strains, growth OD, locus YOR070C, strain gyp1, hits give low values
The whole screen tested about 5,500 compounds, of which about 2,000 (36%) were called active. About 18% were inconclusive and are not listed. The list shows a part of the results.

{"structure smiles": "NC(N)=NS(=O)(=O)c1ccc(N)cc1", "result": "0.979 (inactive)"}

Each of the following entries comes with a recorded value; kindly state normalized growth for each.
1. Nc1ccc(N=Nc2ccccc2)c(N)n1
2. CC(C)C(=O)Nc1ccc([N+](=O)[O-])c(C(F)(F)F)c1

0.774 (active)
1 (inactive)

====

Assay: chemical genetic growth profiling, strain panel (AID 1159580);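 further: tested at 20 µM; growth read once vehicle control cultures reached saturation at 30 °C; 1 = growth at the plate median or of vehicle wells; lower values mean less growth of the strain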
Details: S. cerevisiae deletion strains, growth OD, locus YML032C, strain rad52, hits give low values
Hit rate of the full screen: of about 5,500 compounds, about 2,000 (36%) were called active. Roughly 18% stayed inconclusive and do not appear here. This is one part of the list.
endpoint label: normalized growth

{"compound": "CCCCOC(=O)c1ccccc1C(=O)OCCCC", "result": "0.982 (inactive)"}
{"compound": "CC1(C)O[C@H]2[C@H](O)C[C@](O)(C(N)=O)C[C@H]2O1", "result": "1.03 (inactive)"}
{"compound": "CCCNC1CCc2nc(N)sc2C1 (centres undefined)", "result": "0.992 (inactive)"}

Then this compound:
Sample COc1cc2c(cc1OC)C1Cc3ccc(OC)c(OC)c3CN1CC2 (centres undefined) — what was its normalized growth?
1.03 (inactive)

====

Assign normalized growth to each entry below.
Assay: chemical genetic growth profiling, strain panel (AID 1159580);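 further: tested at 20 µM; growth read once vehicle control cultures reached saturation at 30 °C; 1 = growth at the plate median or of vehicle wells; lower values mean less growth of the strain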
Details: S. cerevisiae deletion strains, growth OD, locus YPL078C, strain atp4, hits give low values
The campaign covered roughly 5,500 compounds. About 2,000 (36%) were called active. Roughly 18% stayed inconclusive and do not appear here. Some of the results follow.

{"compound": "NC(=O)c1cccc(N)c1", "result": "0.963 (inactive)"}

Each of the following entries comes with a recorded value; kindly state normalized growth for each.
1. CO/N=C(\C(=O)NC1C(=O)N2C(C(=O)OC(C)OC(C)=O)=C(COC(N)=O)CSC12)c1ccco1 (stereo not drawn)
2. Nc1nc2ncc(=O)[nH]c2c(=O)[nH]1

0.995 (inactive)
0.97 (inactive)

====

Test: chemical genetic growth profiling, strain panel (AID 1159580);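 further: tested at 20 µM; growth read once vehicle control cultures reached saturation at 30 °C; 1 = growth at the plate median or of vehicle wells; lower values mean less growth of the strain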
Settings: S. cerevisiae deletion strains, growth OD, locus YEL061C, strain CIN8, hits give low values
About 2,000 (36%) of roughly 5,500 compounds were called active. Roughly 18% stayed inconclusive and do not appear here. The list shows a part of the results.
endpoint label: normalized growth
One number for each entry.

The examples below pair each entry with its known result.
{"molecule": "Cc1cccc(C)c1NC1=NCCCS1", "recorded number": 1}
{"molecule": "Oc1ccc(Cl)cc1", "recorded number": 0.993}
{"molecule": "CSC(=NC#N)N1CCN(c2ccc([N+](=O)[O-])cn2)CC1", "recorded number": 0.957}
{"molecule": "C#CCCCCCCCCCCCC(=O)CC(O)COC(C)=O (centres undefined)", "recorded number": 0.855}
{"molecule": "Cc1cccc(C(=O)O)c1O", "recorded number": 1.01}

Each of the following entries comes with a recorded value; kindly state normalized growth for each.
1. Clc1cccc(NC2=NCCS2)c1Cl
2. CCNC(=O)CC[C@H](N)C(=O)O
3. Cc1c(Cl)cccc1Nc1ccccc1C(=O)O
4. COc1ccc(CCN2CCC(Nc3nc4ccccc4n3Cc3ccc(F)cc3)CC2)cc1

[0.974, 0.999, 0.855, 0.993]

Each of the following entries comes with a recorded value; kindly state normalized growth for each.
1. COC(=O)[C@@H]1OC(=O)[C@H]2O[C@@]23[C@@]1(C)CCC1[C@@]2(C)CCC(=O)C(C)(C)C2C[C@@H](OC(C)=O)[C@]13C (some centres undefined)
2. CC(C)C(C)/C=C/C(C)[C@H]1CCC2C3=CCC4CC(=O)CC[C@]4(C)C3CC[C@@]21C (some centres undefined)
3. Clc1cccc(Cl)c1NC1=NCCN1
4. C#CCCCCCCCCCCCC(O)CC(O)COC(C)=O (centres undefined)
5. N#CC(C#N)=Cc1ccc(-c2cc(C(F)(F)F)ccc2Cl)o1
6. CCCCN1CCCCC1C(=O)Nc1c(C)cccc1C (centres undefined)
7. CC(=O)OCC(COC(C)=O)OC(C)=O
8. CC(=O)OC1CCC2(C)C(=CC=C3C2CCC2(C)C3CCC2C(C)/C=C/C(C)C(C)C)C1(C)C (centres undefined)

1: 1; 2: 1.01; 3: 1.01; 4: 0.989; 5: 0.997; 6: 1.01; 7: 1.01; 8: 1.01

Each of the following entries comes with a recorded value; kindly state normalized growth for each.
1. OCc1ccccc1O
2. CC(=O)OCC[C@H](C)CCC=C(C)C

1. 1.01
2. 1.01
